measurement.notes: in vivo
run.parameters: female, C57BL/6J, mouse, ip, 50 mg/kg, plasma concentration, Mean
measured.parameter: concentration at 24 h (nM)
Give the quantity in nM, number only.

Requested field: concentration at 24 h. Item: CCO[C@@H]1OC(=O)C[C@@H]1NC(=O)[C@@H]1CCCN1C(=O)[C@@H](NC(=O)c1ccc(N)c(Cl)c1)C(C)(C)C [VX-765]
10

----------
measurement.notes: VX-765 and VRT-043198 pharmacokinetics (LC-MS/MS) in plasma, whole brain and CSF after a single IP dose of VX-765
run.parameters: read-out: Cmax in brain, Mouse 1; whole brain; single IP 50 mg/kg VX-765
measured.parameter: Cmax (nM)
Give the quantity in nM, number only.

Requested field: Cmax. Item: CC(C)(C)[C@H](NC(=O)c1ccc(N)c(Cl)c1)C(=O)N1CCC[C@H]1C(=O)N[C@H](C=O)CC(=O)O
2540

Data provenance is paper PMC7486940.
